test: TEAD-YAP interaction inhibition, primary screen, TEAD-YAP interaction inhibitor project, luminescence, HEK-TIYL cells (AID 1259422); details: TEAD-Gal4/YAP UAS-luciferase luminescence, at 9.12 µM;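 further: 0% = median of test compound wells and 100% = reference inhibitor wells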
Among all 640,000 compounds or so, about 9,300 (1.5%) were called active. No stated cut-off is given here; in the data, active means inhibition above about 32%; inactive means the rest. The list comes from a sample in which actives are over-represented; it also holds close analogues and randomly drawn compounds.
Write down one outcome, taken from 1 (active), -1 (inactive)

Solved cases (3 shown):
| Molecule | Label Class |
| --- | --- |
| CN(C(=S)Nc1ccc(Cl)cc1)c1c(N)n(Cc2ccccc2)c(=O)[nH]c1=O | -1 |
| CCOC(=O)Cn1c(=O)c2c(nc3n2CC(C)CN3c2ccccc2C)n(C)c1=O (stereo not given) | -1 |
| CCN(CC)c1ccc2cc(-c3nc4ccc(Cl)cc4[nH]3)c(=O)oc2c1 | -1 |

Query block: What classification did COC(=O)c1cc(S(=O)(=O)Nc2ccc(C(C)=O)cc2)cn1C end up with in this test?
Result block: -1

Query block: Identify the outcome logged in this assay for the molecule shown: CCN(CC)c1ccc2cc(-c3nc4ccccc4[nH]3)c(=N)oc2c1
Result block: 1

Query block: Dear colleague, could you share the recorded outcome for O=C(NCc1ccc(F)cc1)c1nc2c(nnn2Cc2ccc3c(c2)OCO3)c(=O)[nH]1 when you have a moment?
Result block: -1

Query block: What outcome does the record of this test show for Cc1nonc1CN(C)C(=O)c1cc(COc2cccc(C(F)(F)F)c2)on1 ?
Result block: -1

Query block: Kindly provide the recorded test outcome for the following molecule: CCN(CC)C1CCN(C(=O)c2cc(COc3ccc4ncccc4c3)on2)C1 (stereo not given)
Result block: -1

Query block: What is the recorded call for this molecule in the test? Cc1cc(CNC(=O)c2cc(COc3ccc4ncccc4c3)on2)nn1C
Result block: -1

Query block: Dear colleague, could you share the recorded outcome for O=C1c2cccnc2C(=O)N1CNc1ccccc1 when you have a moment?
Result block: -1

* * *

assay: TEAD-YAP interaction inhibition, primary screen, TEAD-YAP interaction inhibitor project, luminescence, HEK-TIYL cells (AID 1259422); settings: TEAD-Gal4/YAP UAS-luciferase luminescence, at 9.12 µM, stronger effect = higher value;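 further: 0% = median of test compound wells and 100% = reference inhibitor wells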
Screen size: about 640,000 compounds; about 9,300 (1.5%) were called active. The entries come from a sample that favours actives as a whole.
Recorded Metric: inhibition (%)
Numbers only, in %.

| Compound | inhibition / % |
| --- | --- |
| COc1ccc(OC(C)C(=O)Nc2ccc(C(=O)OC(C)C)cc2)cc1 (stereo not drawn) | 11.3 |
| CC(=O)N1CCN(Cc2nc(-c3ccc(Cl)cc3)cs2)CC1 | 2.89 |
| N#C/C(=C\c1ccc(N2CCOCC2)cc1)c1ccccn1 | 90.2 |
| CCCCSc1nnc(NC(=O)C2CC2)s1 | -17.5 |
| O=C(NCc1ccc(Cl)cc1)N1CCN(Cc2nc(-c3ccco3)cs2)CC1 | 41.8 |
| CC1CN(c2nc3c(c(=O)[nH]2)CCN(c2cnccn2)C3)CC(C)O1 (stereo not drawn) | 9.31 |
| CCOC(=O)N1CCN(c2cc(NCCO)c3c4c(onc24)-c2ccccc2C3=O)CC1 | 17.6 |
| CC(=O)c1cccc(N2CC(O)=C(c3nc4ccccc4[nH]3)C2=N)c1 | -5.18 |

List inhibition for every entry below, keeping the order given.
1. COCCNC(=O)/C(C#N)=C/c1ccc(N2CCOCC2)cc1
2. O=C1CCCC2=C1C(c1c(F)cccc1Cl)Nc1ccc(C(=O)c3ccccc3)cc1N2 (stereo not drawn)
3. CC(=O)Nc1ccc(Nc2nc(Nc3ccncn3)nc3c2ncn3-c2ccsc2)cc1
4. C/C(CC(=O)NC1CCCC1)=N\NC(=O)COc1cccc(C)c1
5. CN(C)CCCn1c(-c2ccc(Cl)cc2)csc1=Nc1ccccc1
6. CCCn1c(-c2ccc(S(=O)(=O)N(C)C)cc2)csc1=Nc1ccccc1
7. CC(NC(=O)CSCc1ccccc1Cl)c1ccccc1 (stereo not drawn)

Result block:
1. -20.6
2. -16.1
3. 6.4
4. -8.3
5. 5.26
6. 35.3
7. -4.44

* * *

experiment: TEAD-YAP interaction inhibition, primary screen, TEAD-YAP interaction inhibitor project, luminescence, HEK-TIYL cells (AID 1259422); conditions: TEAD-Gal4/YAP UAS-luciferase luminescence, at 9.12 µM;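 further: 0% = median of test compound wells and 100% = reference inhibitor wells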
Hit rate of the full screen: of about 640,000 compounds, about 9,300 (1.5%) were called active. Rule as the data show it: active = inhibition above about 32%; inactive = the rest. The sample as a whole holds a higher share of actives than the screen did.
Returns: one label drawn from active, inactive

| Compound | Label Class |
| --- | --- |
| CC(NC(=O)CCc1ccccc1)c1nnc2n1CCN(Cc1cccc(F)c1F)CC2 (stereo unspecified) | inactive |

Query block: Any idea what this test logged for CCN1CCN(S(=O)(=O)c2ccc(F)c(C(=O)Nc3cccc(C)c3C)c2)CC1 ?
Result block: inactive

Query block: For this compound, state the assay outcome: O=C(NCc1nc(-c2ccccc2)no1)c1ccccc1I
Result block: inactive

Query block: Record request — test call for Cc1ccc(C)c(C(=O)NCc2nc(-c3ccccc3)no2)c1
Result block: inactive

Query block: Please share the test call associated with Cc1nc2ccccn2c1C(=O)NCc1ccc(Oc2ccccc2)cc1 .
Result block: active

Query block: What was the test verdict on COc1ccc(/C=N/NC(=O)CNc2cccc3ccccc23)cc1Cl ?
Result block: inactive

Query block: Hi, do you know how COc1ccc(C2(C)SC(NC(C)=O)=NN2C(C)=O)cc1 (stereo unspecified) came out in this test?
Result block: inactive

Query block: Answer briefly: the call reported for CC(=O)NC1=NN(C(C)=O)C(C)(c2ccc(C)cc2)S1 (stereo unspecified) in this assay.
Result block: inactive

Query block: Dear colleague, could you share the recorded outcome for COc1ccc(-c2ccc(C(=O)NC3CC3)s2)cn1 when you have a moment?
Result block: active

Query block: What outcome does the record of this test show for O=C(Nc1ccc2c(c1)OCCO2)C(=O)Nc1ccc2nc3n(c(=O)c2c1)CCCCC3 ?
Result block: inactive

Query block: Record request — test call for COc1ccc(CCNC(=O)CCn2c(SCc3cccc(Cl)c3)nc3ccccc3c2=O)cc1OC
Result block: inactive

* * *

experiment: TEAD-YAP interaction inhibition, primary screen, TEAD-YAP interaction inhibitor project, luminescence, HEK-TIYL cells (AID 1259422); conditions: TEAD-Gal4/YAP UAS-luciferase luminescence, at 9.12 µM, stronger effect = higher value;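 further: 0% = median of test compound wells and 100% = reference inhibitor wells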
The campaign covered roughly 640,000 compounds. About 9,300 (1.5%) were called active. Many of the other results were omitted from the sample, so actives are more common in it than they were.
For each of the compounds below, state its inhibition.
Numbers only, in %.

Illustrative cases are given below, each with its answer.
| Compound | Measured Result |
| --- | --- |
| Cc1cc(OCc2nc(SCC(=O)N(C)C)n[nH]2)ccc1Cl | -1.92 |
| COCCSc1nc2c(c(=O)[nH]c(=O)n2C)n1Cc1ccccc1Cl | 2.74 |
| O=C(c1cccc(Cl)c1)N1CCN(c2ccc([N+](=O)[O-])c(N3CCOCC3)c2)CC1 | 13.5 |
| COCCNc1nc(-c2c[nH]c3ccccc23)cs1 | 0.65 |
| Cc1ccc(CNS(=O)(=O)c2ccc(F)c(C(=O)Nc3cccc(Cl)c3)c2)cc1 | -4.88 |
| C=CCNS(=O)(=O)c1cc(C(=O)Nc2ccccc2C(F)(F)F)ccc1F | -7.91 |
| N#C/C(=C/c1ccccc1F)C(=O)NCCc1c[nH]c2ccccc12 | 12.4 |
| COc1ccc(C(=O)Nc2cc(C)nn2-c2nc3ccccc3[nH]2)cc1[N+](=O)[O-] | 10.1 |
| CCOC(=O)c1c(NC(=O)c2cccc(C)c2)sc2c1CCC2 | 1.21 |

Query block: Looking for the measured inhibition of O=C(NCCN1CCCCC1CO)c1ccc(OC2CCN(C(=O)C3CC3)CC2)cc1 (stereo not given) , can you help?
Result block: 1.44

* * *

assay: TEAD-YAP interaction inhibition, primary screen, TEAD-YAP interaction inhibitor project, luminescence, HEK-TIYL cells (AID 1259422); conditions: TEAD-Gal4/YAP UAS-luciferase luminescence, at 9.12 µM;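 further: 0% = median of test compound wells and 100% = reference inhibitor wells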
About 9,300 (1.5%) of roughly 640,000 compounds were called active. Rule as the data show it: active = inhibition above about 32%; inactive = the rest. The sample holds actives, similar compounds and a random draw of the others, so the mix is not that of the screen.
The reply should name one outcome from TRUE = active, FALSE = inactive

Example cases with answers are listed next.
| Compound | Label Class |
| --- | --- |
| Cc1ccc(-c2ncn(-c3ccc(Nc4ncc(F)c(-c5cccc(N6CCOCC6)c5)n4)cc3)n2)cn1 | FALSE |
| N#C/C=C(/CC(O)(c1nc2ccccc2s1)C(F)(F)F)N1CCCC1 (stereo unspecified) | FALSE |
| c1ccc(Nc2nc3ncnc(NCc4cccnc4)c3[nH]2)cc1 | FALSE |
| COc1ccc(N2CCN(S(=O)(=O)c3ccc(Cl)cc3)CC2)c([N+](=O)[O-])c1 | FALSE |
| COc1ccc2[nH]cc(CCNC(=O)C3CCN(c4nc5ccccc5n4C)CC3)c2c1 | TRUE |

Query block: Call for entry COc1ccc(C2/C(=C(\O)c3ccc(C)cc3)C(=O)C(=O)N2c2c(C)n(C)n(-c3ccccc3)c2=O)cc1 (stereo unspecified) :
Result block: FALSE

Query block: Could you check what this test reported for O=C(CSc1cccc[n+]1[O-])Nc1nc2ccccc2s1 ?
Result block: FALSE

Query block: Which result was noted for this compound in the test: COc1ccc([N+](=O)[O-])cc1NC(=O)c1cnc(N2CCN(c3ncccn3)CC2)c2ccccc12
Result block: TRUE

Query block: Would you mind telling me which call this test gave O=C(NCCOc1ccccc1)c1cc(NC2CCN(Cc3ccccc3)CC2)nc2ccccc12 ?
Result block: FALSE

Query block: Test call for this compound, please: CN(C)c1cc(C(=O)N2CCN(C(=O)C(C)(C)C)CC2)nc(N(C)C)n1
Result block: FALSE

Query block: Each compound tested received a call. Report the one for O=C(CNC(=O)c1ccco1)N/N=C/c1ccc(O)c(O)c1 .
Result block: FALSE

Query block: Outcome? COc1ccc(Cl)cc1NC(=O)c1cnc(N2CCN(c3ncccn3)CC2)c2ccccc12
Result block: FALSE

Query block: What outcome does the record of this test show for O=C(N/N=C/c1ccc(Cl)cc1)c1ccccc1F ?
Result block: FALSE
